# pIC50 per entry
- TARGET OF ASSAY: BRD4(BD1) (Homo sapiens (Human), UniProt O60885)
- PROTOCOL TEXT: In vitro enzyme inhibition assay (BRD4 AlphaScreen)
- Assay type: binding
- MEASUREMENT PARAMETERS: in vitro enzyme inhibition assay
- Experimental: His-tagged BRD4 was cloned, expressed and purified to homogeneity. […] BRD4 binding and inhibition was assessed by monitoring the interaction of biotinylated H4-tetraacetyl peptide (AnaSpec, H4K5/8/12/16(Ac), biotin-labeled) with the target using the AlphaScreen technology (Life Technologies). […] The ability of the compounds disclosed herein to inhibit BRD4 activity was quantified and the respective IC50 value was determined.
pIC50: −log10 of the molar value.
PROPERTY LABEL: pIC50

• Cc1cc(-c2nc(NS(C)(=O)=O)ncc2Oc2ccc(F)cc2F)cn(CC2CCC2)c1=O = 5.30 to 6.30
• CCS(=O)(=O)c1ccc(OCC2CC2)c(-c2cc(NC)c(=O)n(C)c2)c1 = > 6.30
• C#Cc1cc(-c2cc(NS(C)(=O)=O)ccc2Oc2ccc(F)cc2F)cn(C)c1=O = > 6.30
• CCS(=O)(=O)Nc1ccc(Oc2ccc(F)cc2F)c(-c2cc(C3CC3)c(=O)n(C)c2)c1 = > 6.30
• CCS(=O)(=O)c1ccc(OC2CCC(F)(F)CC2)c(-c2cn(C)c(=O)c3cncn23)c1 = > 6.30
• CCS(=O)(=O)Nc1ccc(OC2CCC(F)(F)CC2)c(-c2cc(C)c(=O)n(C)c2)c1 = > 6.30
• Cn1cc(-c2cc(NS(C)(=O)=O)ccc2Oc2ccc(F)cc2F)cc(F)c1=O = > 6.30
• COc1ccc(COc2cc(-c3cn(C)c(=O)c4ccccc34)cc(S(C)(=O)=O)c2)cc1 = 5.30 to 6.30
• CCS(=O)(=O)c1cc(-c2cn(C)c(=O)c3ccccc23)c(NCC2CC2)s1 = > 6.30
• CCS(=O)(=O)c1ccc(NCC2CC2)c(-c2cc(N(C)C)c(=O)n(C)c2)c1 = > 6.30
• Cn1cc(-c2cccc(NS(C)(=O)=O)c2)cc(OCc2ccccc2)c1=O = < 5.30
• CCS(=O)(=O)Cc1ccc(Oc2ccc(F)cc2F)c(-c2cc(OC(F)F)c(=O)n(C)c2)c1 = > 6.30
• Cc1cc(-c2cc(S(C)(=O)=O)ccc2OCC2CC2)cn(Cc2cocn2)c1=O = 5.30 to 6.30
• CN(C)c1cc(-c2cc(S(C)(=O)=O)ccc2NCC2CC2)cn(C)c1=O = > 6.30
• CCS(=O)(=O)Cc1ccc(OCC(F)(F)F)c(-c2cc(C)c(=O)n(CCO)c2)c1 = 5.30 to 6.30
• Cc1cc(-c2cc(S(C)(=O)=O)ccc2NC2CCC(F)(F)CC2)cn(C)c1=O = > 6.30
• CCN(c1ncc(OCC2CC2)c(-c2cn(C)c(=O)c3ccccc23)n1)S(C)(=O)=O = > 6.30

---

- System: Raji, human Burkitts lymphoma cells
- PROTOCOL TEXT: Cell-MTS proliferation assay, Raji
- Type: cell-based
- MEASUREMENT PARAMETERS: Homo sapiens, Raji; Cell-MTS, 168 hr; class symbols A/B/C
pIC50: −log10 of the molar value.
PROPERTY LABEL: pIC50

- Cn1cc(-c2cc(S(N)(=O)=O)ccc2Oc2ccc(F)cc2F)ccc1=O [Example 118]: > 6.30
- COc1ccc(-c2cn(C)c(=O)c3ccccc23)cc1C(=O)NCc1ccccc1 [Example 18]: 5.30 to 6.30
- Cn1cc(-c2cccc(NS(C)(=O)=O)c2)c2cc(F)ccc2c1=O [Example 47]: > 6.30
- COc1ccc(-c2cn(C)c(=O)c3cncn23)cc1NS(C)(=O)=O [Example 132]: < 5.30
- CNc1cc(-c2ccc(OC)c(NS(C)(=O)=O)c2)cn(C)c1=O [Example 110]: < 5.30
- Cc1cnn(-c2ccc3c(=O)n(C)cc(-c4cc(S(C)(=O)=O)ccc4OCC4CC4)c3c2)c1 [Example 128]: > 6.30
- Cc1cc(-c2cc(S(C)(=O)=O)ccc2OCC2CC2)nn(C)c1=O [Example 136]: < 5.30
- CCOc1ccc(S(N)(=O)=O)cc1-c1ccc(=O)n(C)c1 [Example 117]: 5.30 to 6.30
- Cn1cc(-c2cccc(NS(C)(=O)=O)c2)c2ccncc2c1=O [Example 51]: < 5.30

---

- TARGET OF ASSAY: BRD4(BD1) (Homo sapiens (Human), UniProt O60885)
- PROTOCOL TEXT: In vitro enzyme inhibition assay (BRD4 AlphaScreen)
- Type: binding
- MEASUREMENT PARAMETERS: in vitro enzyme inhibition assay
pIC50: −log10 of the molar value.
The following compounds are shown together with reported pIC50 values.
PROPERTY LABEL: pIC50

- CCS(=O)(=O)Nc1cnc(Oc2ccc(F)cc2F)c(-c2cn(C)c(=O)c3occc23)c1: > 6.30
- CCS(=O)(=O)Nc1ccnc(-c2cn(C)c(=O)c3ccc(-c4cnn(C)c4)cc23)c1: > 6.30
- CCS(=O)(=O)Nc1ncc(Oc2ccc(F)cc2F)c(-c2cn(C)c(=O)c3occc23)n1: > 6.30
- Cc1cc(-c2cc(S(C)(=O)=O)ccc2OCC2CC2)cn(CC(C)C)c1=O: 5.30 to 6.30
- Cc1cc(-c2nc(S(C)(=O)=O)ncc2Oc2ccc(F)cc2F)cn(C(C)C)c1=O: 5.30 to 6.30
- Cn1cc(-c2cc(S(C)(=O)=O)ccc2O[C@H]2CC[C@H](N)CC2)c2ccccc2c1=O: > 6.30
- CCS(=O)(=O)Nc1ccc(Oc2ccc(F)cc2F)c(-c2cc(OC)c(=O)n(C)c2)c1: > 6.30
- Cn1cc(-c2cc(S(C)(=O)=O)cc3c2OC(C2CC2)C3)c2ccccc2c1=O (stereo not drawn): > 6.30
- CCS(=O)(=O)Nc1ccc(Oc2ccc(F)cc2F)c(-c2cn(C)c(=O)c3c2CCC3)c1: > 6.30
- Cn1cc(-c2cc(S(C)(=O)=O)ccc2OCC2CC2)c2occc2c1=O: > 6.30
- CCC(=O)Nc1cc(-c2cccc(NS(C)(=O)=O)c2)cn(C)c1=O: < 5.30
- CCS(=O)(=O)Nc1ccc(Oc2ccc(F)cc2F)c(-c2cc(NC)c(=O)n(C)c2)c1: > 6.30
- Cc1cc(-c2cc(S(N)(=O)=O)ccc2NCC2CC2)cn(C)c1=O: 5.30 to 6.30
- Cc1cc(-c2cc(OCC3(C)COC3)cc(S(C)(=O)=O)c2)cn(C)c1=O: > 6.30
- Cn1cc(-c2nc(NS(C)(=O)=O)ncc2OCC2CC2)c2cc(F)ccc2c1=O: > 6.30
- Cn1cc(-c2cc(S(C)(=O)=O)ccc2O[C@H]2CC[C@H](O)CC2)c2ccccc2c1=O: > 6.30
- COc1cc(-c2nc(S(C)(=O)=O)ncc2Oc2ccc(F)cc2F)cn(C)c1=O: > 6.30
- Cn1cc(-c2cc(NS(C)(=O)=O)c(F)cc2OCC2CC2)c2c(c1=O)CCCC2: > 6.30
- [2H]C([2H])([2H])n1cc(-c2cc(S(=O)(=O)CC)ccc2OCC2CC2)c(C)cc1=O: > 6.30
- Cn1cc(-c2cc(NS(C)(=O)=O)ccc2Oc2ccc(F)cc2F)c2occc2c1=O: > 6.30
- Cn1cc(-c2nc(S(C)(=O)=O)ncc2OCC2CC2)c2ccccc2c1=O: > 6.30
- Cc1cc(-c2cc(S(C)(=O)=O)ccc2NCC2CC2)cn(C)c1=O: > 6.30
- Cc1nc2c(=O)n(C)cc(-c3cc(S(C)(=O)=O)ccc3OCC3CC3)c2o1: > 6.30
- Cn1cc(-c2cc(OCC3CC3)cc(S(C)(=O)=O)c2)c2ccccc2c1=O: > 6.30
- CCS(=O)(=O)Nc1ccc(Oc2ccc(F)cc2F)c(-c2cn(C)c(=O)c3ccoc23)c1: > 6.30
- CCS(=O)(=O)c1ccc(OCC2CC2)c(-c2cc(C)c(=O)n(C3CC3)c2)c1: > 6.30
- CCS(=O)(=O)Nc1ccc(Oc2ccc(F)cc2F)c(-c2cc(O)c(=O)n(C)c2)c1: > 6.30
- Cc1cc(=O)n(C)cc1-c1cc(S(C)(=O)=O)ccc1NCC1CC1: 5.30 to 6.30
- CCS(=O)(=O)c1ccc(OCC2CC2)c(-c2cc(N3CCCC3)c(=O)n(C)c2)c1: 5.30 to 6.30
- CCC#CCOc1ccc(S(=O)(=O)CC)cc1-c1cc(OC)c(=O)n(C)c1: > 6.30
- CCS(=O)(=O)Nc1ncc(Oc2ccc(F)cc2F)c(-c2cc(C(C)C)c(=O)n(C)c2)n1: > 6.30
- CCOc1ccc(S(=O)(=O)CC)cc1-c1cc(N(C)C)c(=O)n(C)c1: > 6.30
- CCCCc1cnc(NS(=O)(=O)CC)nc1-c1cc(C)c(=O)n(C(C)C)c1: > 6.30
